Cited source for all entries: patent US20230295130A1

- TARGET_UNDER_TEST: CDK7/Cyclin H/MAT1 kinase (Homo sapiens (Human))
- Sequence (P50613 whole entry): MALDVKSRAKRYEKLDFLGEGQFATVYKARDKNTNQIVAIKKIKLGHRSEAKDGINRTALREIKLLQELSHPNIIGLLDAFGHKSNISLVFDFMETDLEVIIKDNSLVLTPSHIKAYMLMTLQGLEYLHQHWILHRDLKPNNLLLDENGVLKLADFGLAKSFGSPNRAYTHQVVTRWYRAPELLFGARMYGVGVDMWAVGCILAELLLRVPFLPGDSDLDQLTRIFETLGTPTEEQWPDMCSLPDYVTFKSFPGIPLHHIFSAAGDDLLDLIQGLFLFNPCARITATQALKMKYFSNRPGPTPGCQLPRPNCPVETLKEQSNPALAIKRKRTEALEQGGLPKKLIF
- Sequence (P51946 whole entry partner): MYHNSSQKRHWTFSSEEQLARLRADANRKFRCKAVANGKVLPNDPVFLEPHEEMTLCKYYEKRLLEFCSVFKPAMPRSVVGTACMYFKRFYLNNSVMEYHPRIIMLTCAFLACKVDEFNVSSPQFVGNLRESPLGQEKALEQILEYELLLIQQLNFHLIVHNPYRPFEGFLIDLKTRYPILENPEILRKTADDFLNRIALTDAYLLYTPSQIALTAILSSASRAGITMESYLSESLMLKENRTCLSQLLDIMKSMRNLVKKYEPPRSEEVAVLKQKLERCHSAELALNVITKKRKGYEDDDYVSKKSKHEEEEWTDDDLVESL
- Sequence (P51948 whole entry partner): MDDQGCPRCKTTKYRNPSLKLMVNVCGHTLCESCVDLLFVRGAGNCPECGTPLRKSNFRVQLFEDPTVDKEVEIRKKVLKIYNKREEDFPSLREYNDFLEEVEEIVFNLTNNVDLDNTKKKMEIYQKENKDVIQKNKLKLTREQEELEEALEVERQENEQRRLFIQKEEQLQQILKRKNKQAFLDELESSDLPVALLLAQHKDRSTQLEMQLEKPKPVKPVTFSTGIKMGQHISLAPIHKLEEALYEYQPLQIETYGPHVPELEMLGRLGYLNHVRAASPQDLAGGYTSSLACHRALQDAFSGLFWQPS
- ASSAY_PROCEDURE: Enzyme activity test, mobility shift assay (Table 1)
- Assay type: biochemical
- RUN_PARAMETERS: 2 mM ATP; pre-incubated 0 and 60 minutes
Reported IC50 values are given for each entry in this list.

Consider the worked cases shown below.
COC(=O)Nc1ccc2c(-c3nc(N[C@@H]4CNCC(C)(C)C4)ncc3C(F)(F)F)c[nH]c2c1C(F)(F)F :: < 50 nM
COC(=O)Nc1ccc2c(-c3nc(N[C@H]4CCC[C@H](O)C4)ncc3C(F)(F)F)c[nH]c2c1Br [Compound T-50] :: > 500 nM
COC(=O)Nc1ccc2c(-c3nc(N[C@H]4CCCN(C)C4)ncc3C(F)(F)F)c[nH]c2c1OC(F)F :: < 50 nM
COC(=O)Nc1ccc2c(-c3nc(N[C@H]4CCCNC4)ncc3C(F)(F)F)c[nH]c2c1OC :: < 50 nM
COC(=O)Nc1ccc2c(-c3nc(N[C@H]4CC[C@@H](N)C4)ncc3C(F)(F)F)c[nH]c2c1Br :: > 500 nM
COC(=O)Nc1ccc2c(-c3nc(N[C@@H]4CC[C@@H](N)C4)ncc3C(F)(F)F)c[nH]c2c1Br :: 50 to 500 nM
CCOC(=O)Nc1ccc2c(-c3nc(N[C@H]4CCC(C)(C)NC4)ncc3C(F)(F)F)c[nH]c2c1Cl :: < 50 nM
COC(=O)Nc1ccc2c(-c3nc(N[C@H]4CCCN(C)C4)ncc3C(F)(F)F)c[nH]c2c1OC :: < 50 nM
COC(=O)Nc1ccc2c(-c3nc(N[C@H]4CCC(C)(C)NC4)ncc3C(F)(F)F)c[nH]c2c1OC :: < 50 nM

Pending compound:
Return reported IC50; argument: `O=C1CCN1c1ccc2c(-c3nc(N[C@H]4CCCNC4)ncc3C(F)(F)F)c[nH]c2c1Br`
< 50 nM

----------
- Tested on: ovarian cancer cells A2780
- ASSAY_PROCEDURE: Cell anti-proliferation experiment, MTT (Table 2)
- Assay type: cell-based, human
- RUN_PARAMETERS: Homo sapiens, A2780, 72 h, incubate 3 days
- Description: Human breast cancer cells MDA-MB 231, MDA-MB453, ovarian cancer cells OVCAR3 and A2780, colorectal cancer cells HCT-116 and WiDr, and lung cancer cell Calu-6 were purchased from BNCC. […]
METRIC_NAME: IC50 (nM)

COC(=O)Nc1ccc2c(-c3nc(N[C@H]4CCC(C)(C)NC4)ncc3C(F)(F)F)c[nH]c2c1OCC(F)(F)F [Example T-91] :: 8.75

[I] COC(=O)Nc1ccc2c(-c3nc(N[C@H]4CCCNC4)ncc3C(F)(F)F)c[nH]c2c1OC(F)(F)F [Example T-122]
[II] COC(=O)Nc1ccc2c(-c3nc(N[C@H]4CCCNC4)ncc3C(F)(F)F)c[nH]c2c1C1CC1 [Example T-17]
[III] CCOC(=O)Nc1ccc2c(-c3nc(N[C@H]4CCCNC4)ncc3C(F)(F)F)c[nH]c2c1Br [Example T-42]
Order each entry by recorded IC50, climbing from the minimum. Write the labels in rank order as requested.
I, II, III
(I: 0.54 nM, II: 4.76 nM, III: 12.3 nM)

----------
- TARGET_UNDER_TEST: CDK7/Cyclin H/MAT1 kinase (Homo sapiens (Human))
- ASSAY_PROCEDURE: Enzyme activity test, mobility shift assay (Table 1)
- Assay type: biochemical
- RUN_PARAMETERS: 2 mM ATP; pre-incubated 0 and 60 minutes
METRIC_NAME: IC50

COC(=O)Nc1ccc2c(-c3nc(N[C@H]4[C@@H]5CNC[C@@H]54)ncc3C(F)(F)F)c[nH]c2c1Br :: < 50 nM
COC(=O)Nc1ccc2c(-c3nc(N[C@H]4CCC(C)NC4)ncc3C(F)(F)F)c[nH]c2c1Cl (stereo partly drawn) :: 50 to 500 nM
COC(=O)Nc1ccc2c(-c3nc(N[C@H]4CC[C@@H](C)NC4)ncc3C(F)(F)F)c[nH]c2c1Cl :: 50 to 500 nM
COC(=O)Nc1ccc2c(-c3nc(N[C@H]4CCCNC4)ncc3C(F)(F)F)c[nH]c2c1C :: < 50 nM
COC(=O)Nc1ccc2c(-c3nc(N[C@H]4CCC(C)(C)NC4)ncc3C(F)(F)F)c[nH]c2c1OC1CCCC1 :: 50 to 500 nM

# input for lookup
Query (molecule): `COC(=O)Nc1ccc2c(-c3nc(N[C@H]4CCC5(CC5)NC4)ncc3C(F)(F)F)c[nH]c2c1Cl` ; field requested: IC50
< 50 nM

----------
IC50 listing for selected compounds.
- TARGET_UNDER_TEST: CDK7/Cyclin H/MAT1 kinase (Homo sapiens (Human))
- ASSAY_PROCEDURE: Enzyme activity test, mobility shift assay (Table 1)
- Type: biochemical
- RUN_PARAMETERS: 2 mM ATP; pre-incubated 0 and 60 minutes

A selection of reference data follows.
COC(=O)Nc1ccc2c(-c3nc(N[C@H]4CCC(C)(C)NC4)ncc3C(F)(F)F)c[nH]c2c1C(C)(F)F :: < 50 nM
CC1(C)COC(Nc2ccc3c(-c4nc(N[C@H]5CCCNC5)ncc4C(F)(F)F)c[nH]c3c2Br)=N1 :: < 50 nM

For `COC(=O)Nc1ccc2c(-c3nc(N[C@H]4CC[C@@H](C)NC4)ncc3C(F)(F)F)c[nH]c2c1C1CC1` , what is its reported IC50?
50 to 500 nM

Which value of IC50 has been reported for `COC(=O)Nc1ccc2c(-c3nc(N[C@H]4CCC(C)(C)NC4)ncc3C(F)(F)F)c[nH]c2c1OC1CCC1` in the records?
< 50 nM

Quick check: IC50 of `COC(=O)Nc1ccc2c(-c3nc(N[C@H]4CCC(C)(C)NC4)ncc3C(F)(F)F)c[nH]c2c1C(F)F` ?
< 50 nM

Find the recorded IC50 belonging to `CC(C)OC(=O)Nc1ccc2c(-c3nc(N[C@H]4CCCNC4)ncc3C(F)(F)F)c[nH]c2c1Br` and report it.
< 50 nM

Recorded IC50 for `COC(=O)Nc1ccc2c(-c3nc(N[C@H]4CCCNC4)ncc3C(F)(F)F)c[nH]c2c1C(C)(F)F` , please?
< 50 nM

# lookup: IC50 of `O=C1CCCN1c1ccc2c(-c3nc(N[C@H]4CCCNC4)ncc3C(F)(F)F)c[nH]c2c1Br`
< 50 nM

Quick one: IC50 of `CCOC(=O)Nc1ccc2c(-c3nc(N[C@H]4CCC(C)(C)NC4)ncc3C(F)(F)F)c[nH]c2c1C(C)(F)F` ?
< 50 nM

So what does the record say about IC50 for `C=C(C)c1c(NC(=O)OC)ccc2c(-c3nc(N[C@H]4CCCNC4)ncc3C(F)(F)F)c[nH]c12` ?
< 50 nM

Please look up its IC50: `COC(=O)Nc1ccc2c(-c3nc(N[C@H]4CCC(C)(C)NC4)ncc3C(F)(F)F)c[nH]c2c1C(C)=O`
< 50 nM

Form field: reported IC50 of `O=C1OCCN1c1ccc2c(-c3nc(N[C@H]4CCCNC4)ncc3C(F)(F)F)c[nH]c2c1`
< 50 nM

----------
- Tested on: ovarian cancer cells A2780
- ASSAY_PROCEDURE: Cell anti-proliferation experiment, MTT (Table 2)
- Type: cell-based, human
- RUN_PARAMETERS: Homo sapiens, A2780, 72 h, incubate 3 days
METRIC_NAME: IC50 (nM)

COC(=O)Nc1ccc2c(-c3nc(N[C@H]4CCCNC4)ncc3C(F)(F)F)c[nH]c2c1C(F)(F)F :: 8.73

[P] COC(=O)Nc1ccc2c(-c3nc(N[C@H]4CCC(C)(C)NC4)ncc3C(F)(F)F)c[nH]c2c1OC
[Q] CC1(C)CC[C@H](Nc2ncc(C(F)(F)F)c(-c3c[nH]c4c(P(C)(C)=O)c(C#N)ccc34)n2)CN1 [Compound 101, reference compound]
Which entry shows the lesser value of IC50 here, P or Q ? Use the label to indicate which entry you chose.
P

----------
- TARGET_UNDER_TEST: CDK7/Cyclin H/MAT1 kinase (Homo sapiens (Human))
- ASSAY_PROCEDURE: Enzyme activity test, mobility shift assay (Table 1)
- Type: biochemical
- RUN_PARAMETERS: 2 mM ATP; pre-incubated 0 and 60 minutes
pIC50: −log10 of the molar value.
METRIC_NAME: pIC50

COC(=O)Nc1ccc2c(-c3nc(N[C@H]4CCC[C@H]4N)ncc3C(F)(F)F)c[nH]c2c1Br :: 6.30 to 7.30
COC(=O)Nc1ccc2c(-c3nc(N[C@H]4CC=C(C)NC4)ncc3C(F)(F)F)c[nH]c2c1OC :: 6.30 to 7.30
COC(=O)Nc1ccc2c(-c3nc(N[C@H]4CCC(C)(C)NC4)ncc3C(F)(F)F)c[nH]c2c1Cl :: > 7.30
COC(=O)Nc1ccc2c(-c3nc(N[C@@H]4CC[C@H](N)C4)ncc3C(F)(F)F)c[nH]c2c1Br :: < 6.30

// below: pIC50 requested for another compound
I am curious: what pIC50 value has been reported for COC(=O)Nc1ccc2c(-c3nc(N[C@H]4CCCN(C)C4)ncc3C(F)(F)F)c[nH]c2c1C(F)(F)F [Example T-111] ?
> 7.30
